molecular target: Human immunodeficiency virus type 1 reverse transcriptase (Human immunodeficiency virus 1, UniProt Q72547)
Measure: pIC50
Numbers only, as −log10 of the molar value.

Would you please look over these solved cases?
C=Cc1ccnc2c1NC(=O)c1cccnc1N2C1CC1: 6.96
O=C1Nc2c(CSc3ccccc3)ccnc2N(C2CC2)c2ncccc21: 5.99
O=C1Nc2c(COCc3ccccc3)ccnc2N(C2CC2)c2ncccc21: 6.57

Hi team, please reply with pIC50 for each item in this list.
1. CCN1c2ncccc2C(=O)Nc2c(CO)cc(OC)nc21
2. O=C1Nc2c(CN3CCCC3)ccnc2N(C2CC2)c2ncccc21
3. O=C1Nc2c(Cc3ccccc3O)ccnc2N(C2CC2)c2ncccc21
4. CCOCc1ccnc2c1NC(=O)c1cccnc1N2C1CC1
5. C=CCOCc1ccnc2c1NC(=O)c1cccnc1N2C1CC1
6. O=C1Nc2c(COc3ccccc3O)ccnc2N(C2CC2)c2ncccc21
7. COc1ccc(O)c(Cc2ccnc3c2NC(=O)c2cccnc2N3C2CC2)c1
8. CCNc1ccc(OCc2ccnc3c2NC(=O)c2cccnc2N3C2CC2)cc1

result:
1: 7.30; 2: 6.15; 3: 6.72; 4: 5.89; 5: 5.85; 6: 6.34; 7: 6.07; 8: 7.10

====

IC50, UniProtKB Q72547: measured values
One number for each entry, in µM.

O=C1Nc2c(COc3ccc([N+](=O)[O-])cc3)ccnc2N(C2CC2)c2ncccc21: 1.13
Cc1ccc(OCc2ccnc3c2NC(=O)c2cccnc2N3C2CC2)cc1: 0.58
Cc1cccc(OCc2ccnc3c2NC(=O)c2cccnc2N3C2CC2)c1: 2.43
CCN1c2ncccc2C(=O)Nc2c(COCc3ccccc3)cc(=O)[nH]c21: 0.11

Hi team, please reply with IC50 for each item in this list.
1. N#Cc1ccc(OCc2ccnc3c2NC(=O)c2cccnc2N3C2CC2)cc1
2. CCN1c2ncccc2C(=O)Nc2c(COc3ccccc3)cc(-c3cccc(OC)c3)nc21

result:
1: 0.41; 2: 0.49

Hi team, please reply with IC50 for each item in this list.
1. O=C1Nc2c(COCCc3ccccc3)ccnc2N(C2CC2)c2ncccc21
2. O=C1Nc2c(COc3ccccc3)ccnc2N(C2CC2)c2ncccc21
3. CCN1c2ncccc2C(=O)Nc2c(COCc3ccccc3)cc(OC)nc21
4. CCN1c2ncccc2C(=O)Nc2c(CO)cc(O)nc21

result:
0.42
0.12
0.92
0.42

====

target: Human immunodeficiency virus type 1 reverse transcriptase (Human immunodeficiency virus 1); assay: Percent inhibitory activity against wild type (WT) HIV type I reverse transcriptase at a concentration of 1 uM
Measure: inhibition (%)
Answers are plain numbers, in %.

Would you please look over these solved cases?
O=C1Nc2c(CSc3ccccc3)ccnc2N(C2CC2)c2ncccc21: 44
Cc1ccc(OCc2ccnc3c2NC(=O)c2cccnc2N3C2CC2)cc1: 55
O=C1Nc2c(CSCc3ccccc3)ccnc2N(C2CC2)c2ncccc21: 33

Hi team, please reply with inhibition for each item in this list.
1. O=C1Nc2c(CC3=CCNC3)ccnc2N(C2CC2)c2ncccc21
2. CCN1c2ncccc2C(=O)Nc2c(C3OCCCO3)cc(OC)nc21
3. O=C1Nc2c(Cn3cccn3)ccnc2N(C2CC2)c2ncccc21
4. CCN1c2ncccc2C(=O)Nc2c(C3OCCCO3)cc(-c3cccc(OC)c3)nc21

result:
54
52
36
40
